Source listed as ChEMBL document CHEMBL3046176.

Tested on: Amaranthus retroflexus
ASSAY SUMMARY: Herbicidal activity against Amaranthus retroflexus assessed as herbicidal damage at 1.5 kg/ha measured after preemergence treatment
Format: functional
ASSAY CONTEXT: pre-emergence
Record rule met whenever inhibition at 1500 g/ha is at 8% or higher; record rule not met when lower.

These solved cases illustrate the format of a correct answer.
{"MOLECULE": "CCOCCOC(=O)/C(C#N)=C(/C)NCc1ccoc1", "CATEGORY LABEL": "rule met"}
{"MOLECULE": "CCC/C(NCC1CCOC1)=C(\\C#N)C(=O)OCCOCC (configuration not stated)", "CATEGORY LABEL": "rule met"}
{"MOLECULE": "CCC/C(NCC1CCCO1)=C(\\C#N)C(=O)OCCOCC (configuration not stated)", "CATEGORY LABEL": "rule not met"}
{"MOLECULE": "CCC/C(NCc1ccoc1)=C(\\C#N)C(=O)OCCOCC", "CATEGORY LABEL": "rule not met"}
{"MOLECULE": "CCOCCOC(=O)/C(C#N)=C(\\NCc1ccco1)C(C)C", "CATEGORY LABEL": "rule not met"}

Reported inhibition at 1500 g/ha at or above 8%? CCOCCOC(=O)/C(C#N)=C(\NCC1CCOC1)C(C)C (configuration not stated) rule met

What would you report for CCOCCOC(=O)/C(C#N)=C(/NCC1CCCO1)SC (configuration not stated) ? rule met

What would you report for CCOCCOC(=O)/C(C#N)=C(/NCc1ccc(Cl)nc1)SC ? rule met

What would you report for CCOCCOC(=O)/C(C#N)=C(\NCC1CCCO1)C(C)C (configuration not stated) ? rule not met
